test system: BJ; assay: Antiproliferative activity against human BJ cells after 72 hrs by CelTiter-Glo assay; type: cell-based
Measured Property: EC50

Exam item: Would you kindly share the measured EC50 for COc1ccc(-c2cc(=O)c3c(OC)cc(OC)cc3n2C)cc1 ?
Marked response: 68 µM

Exam item: Thanks! And O=c1cc(-c2ccccc2)oc2cc(O)c(O)c(O)c12 ?
Marked response: > 86.2 µM

Exam item: Entry COc1cc(OC)c2c(=O)cc(C(=O)Nc3ccc(Oc4ccc([N+](=O)[O-])cc4)cc3)[nH]c2c1 please
Marked response: > 23 µM

Exam item: What would you report for COC(=O)c1cc(=O)c2cc(NC(=O)Nc3ccc(Cl)c(Cl)c3)ccc2[nH]1 ?
Marked response: > 12.6 µM

Exam item: COc1cc(OC)c2c(=O)cc(C(=O)Nc3cc(C(F)(F)F)ccc3Oc3ccccc3OC)[nH]c2c1 , same question.
Marked response: > 53.4 µM

Exam item: Repeat with COC(=O)c1cc(=O)c2cc(NC(=O)NC34CC5CC(CC(C5)C3)C4)ccc2[nH]1
Marked response: > 32.2 µM

Exam item: Cool, now COc1ccc(-c2c(I)c(=O)c3c(OC)cc(OC)cc3n2S(=O)(=O)c2ccc(OC)cc2)cc1
Marked response: > 34.5 µM

Exam item: What would you report for COc1cc(OC)c2c(=O)cc(C(=O)Nc3ccccc3S(C)(=O)=O)[nH]c2c1 ?
Marked response: > 39.7 µM

Exam item: Also COc1ccc(-c2cc(=O)c3c(OC)cc(OC)cc3n2S(=O)(=O)c2ccc(C)cc2)cc1 , if possible.
Marked response: > 44.8 µM

* * *

system: HepG2; assay: Antiproliferative activity against human HepG2 cells after 72 hrs by CelTiter-Glo assay; type: functional, cell-based; conditions: HepG2, 72 h
Measured Property: EC50

Exam item: Return reported EC50; argument: COC(=O)c1cc(=O)c2cc(NC(=O)NC34CC5CC(CC(C5)C3)C4)ccc2[nH]1
Marked response: > 16.2 µM

Exam item: Okay, and COc1ccc(-c2cc(=O)c3c(OC)cc(OC)cc3n2S(=O)(=O)c2ccc(C=O)cc2)cc1 ?
Marked response: > 34.5 µM

Exam item: Same lookup for COc1cc(OC)c2c(=O)cc(C(=O)Nc3ccc(Oc4ccc(F)cc4)cc3)[nH]c2c1 , please.
Marked response: > 50 µM

Exam item: Can you handle COc1ccc(-c2cc(=O)c3c(OC)cc(OC)cc3n2S(=O)(=O)c2c(C(C)C)cc(C(C)C)cc2C(C)C)cc1 next?
Marked response: > 341 µM

Exam item: Also, COC(=O)c1cc(=O)c2cc(NC(=O)NCCc3cccs3)ccc2[nH]1 please.
Marked response: > 9.81 µM

* * *

test system: SUP-B15; assay: Antiproliferative activity against human SUP-B15 cells after 72 hrs by CelTiter-Glo assay; assay type: functional, cell-based; conditions: SUP-B15, 72 h
pEC50: −log10 of the molar value.
Record form. Attribute: pEC50. Fill in for each entry.

Exam item: Which value of pEC50 has been reported for COc1cc(OC)c2c(=O)cc(C(=O)N3CCN(C(=O)OC(C)(C)C)CC3)[nH]c2c1 in the records?
Marked response: 5.40

Exam item: Follow-up entry: O=c1cc(-c2ccccc2)oc2cc(O)c(O)c(O)c12
Marked response: 3.99

Exam item: COc1cc(OC)c2c(=O)cc(C(=O)Nc3cccc(-c4nccs4)c3)[nH]c2c1 ?
Marked response: < 4.27

Exam item: Could you do the same for COC(=O)c1cc(=O)c2cc(NC(=O)Nc3ccc(F)c(Cl)c3)ccc2[nH]1 , please?
Marked response: < 4.90

Exam item: Subsequent entry: COc1ccc(-c2cc(=O)c3c(OC)cc(OC)cc3n2S(=O)(=O)c2ccc(C)c([N+](=O)[O-])c2)cc1
Marked response: < 4.29

Exam item: Also need COC(=O)c1cc(=O)c2cc(NC(=O)NC3c4ccccc4-c4ccccc43)ccc2[nH]1 , thanks.
Marked response: < 4.62

Exam item: Also, CN(C)C(=O)c1cc2cnc(Nc3ccc(N4CCNCC4)cn3)nc2n1C1CCCC1 please.
Marked response: < 4.18

Exam item: Next: COc1cc(OC)c2c(=O)cc(-c3ccc4c(c3)OCO4)[nH]c2c1
Marked response: 4.72

Exam item: Further, for COC(=O)c1cc(=O)c2cc(NC(=O)Nc3ccc4c(c3)OCCO4)ccc2[nH]1 ?
Marked response: < 4.58

Exam item: Next: COc1cc(OC)c2c(=O)cc(C(=O)Nc3ccc(N4CCN(C)CC4)cc3)[nH]c2c1
Marked response: < 4.70

Exam item: Also COc1ccc(-c2cc(=O)c3c(OC)cc(OC)cc3n2S(=O)(=O)c2c(F)c(F)c(F)c(F)c2F)cc1 ?
Marked response: 5.39

Exam item: Note, next up: COc1cc(OC)c2c(=O)cc(C(=O)Nc3ccc(C4CCCCC4)cc3)[nH]c2c1
Marked response: < 4.37

Exam item: Param item: COc1cc(OC)c2c(=O)cc(C(=O)Nc3ccc(Oc4cccnc4)cc3)[nH]c2c1
Marked response: < 4.49

Exam item: # repeat for COC(=O)c1cc(=O)c2cc(NC(=O)Nc3ccc4c(c3)CCN4C)ccc2[nH]1
Marked response: < 4.06

Exam item: Now this one: COc1ccc(-c2cc(=O)c3c(OC)cc(OC)cc3n2S(=O)(=O)c2ccc([N+](=O)[O-])cc2)cc1
Marked response: 4.77

Exam item: Try COC(=O)c1cc(=O)c2cc(NC(=O)Nc3ccc(C(F)(F)F)cc3[N+](=O)[O-])ccc2[nH]1 next.
Marked response: < 4.29

Exam item: Now give it for CN1CC[C@H](c2c(O)cc(O)c3c(=O)cc(-c4ccccc4Cl)oc23)[C@H](O)C1 too.
Marked response: < 4.06

Exam item: Next entry: COc1ccc(-c2cc(=O)c3c(OC)cc(OC)cc3n2S(=O)(=O)c2ccc(C#N)cc2)cc1
Marked response: 5.10

Exam item: Next: COc1cc(OC)c2c(=O)cc(C(=O)Nc3ccc(Oc4ccc(F)cc4)cc3)[nH]c2c1
Marked response: < 4.30

* * *

system: SUP-B15; test: Antiproliferative activity against human SUP-B15 cells after 72 hrs by CelTiter-Glo assay; format: functional, cell-based; details: SUP-B15, 72 h
Please go through the items and note down their pEC50.
Please report pEC50 as the negative decimal logarithm of the molar concentration, giving only the number.

Exam item: Would you mind telling me what pEC50 value was observed for COc1ccc(-c2c(Br)c(=O)c3c(OC)cc(OC)cc3n2S(=O)(=O)c2ccc(OC)cc2)cc1 ?
Marked response: 5.53

Exam item: What about this compound? COc1ccc(-c2c(I)c(=O)c3c(OC)cc(OC)cc3n2S(=O)(=O)c2ccc(OC)cc2)cc1
Marked response: 4.91

* * *

system: BJ; experiment: Antiproliferative activity against human BJ cells after 72 hrs by CelTiter-Glo assay; assay type: cell-based
pEC50: −log10 of the molar value.
So I've got a bunch of compounds here, and I need their pEC50 values.

Exam item: Fill blank: measured pEC50 of the compound COc1ccc(-c2cc(=O)c3c(OC)cc(OC)cc3n2Cc2ccccc2)cc1 is ____.
Marked response: < 4.46

Exam item: // query: COc1ccc(-c2cc(=O)c3c(OC)cc(OC)cc3n2S(=O)(=O)Cc2ccccc2)cc1
Marked response: < 4.46

Exam item: Now consider COC(=O)c1cc(=O)c2cc([N+](=O)[O-])ccc2[nH]1 .
Marked response: < 4.08

Exam item: Repeat for the following compound: COc1cc(OC)c2c(=O)cc(C(=O)Nc3ccc(C4CCCCC4)cc3)[nH]c2c1
Marked response: 4.44

Exam item: Entry C=C(C)c1cccc(C(C)(C)NC(=O)Nc2ccc3[nH]c(C(=O)OC)cc(=O)c3c2)c1 please
Marked response: < 4.64

Exam item: Moving on to the next compound: COC(=O)c1cc(=O)c2cc(NC(=O)Nc3ccc4c(c3)CCC4)ccc2[nH]1
Marked response: < 4.62

* * *

test system: SUP-B15; assay: Antiproliferative activity against human SUP-B15 cells after 72 hrs by CelTiter-Glo assay; assay type: functional, cell-based; settings: SUP-B15, 72 h
Measured Property: EC50

Exam item: May I ask what EC50 has been recorded for COc1ccc(-c2cc(=O)c3c(OC)cc(OC)cc3n2S(=O)(=O)c2cc(Cl)cc(Cl)c2O)cc1 ?
Marked response: > 37.9 µM

Exam item: Please give the result for COc1ccc(-c2cc(=O)c3c(OC)cc(OC)cc3n2S(=O)(=O)c2ccc(OC)cc2)cc1 too.
Marked response: > 82.8 µM

Exam item: Proceed to COC(=O)c1cc(=O)c2cc(NC(=O)Nc3cc(OC)c(OC)c(OC)c3)ccc2[nH]1
Marked response: > 86.2 µM

Exam item: Check COc1cc(OC)c2c(=O)cc(C(=O)Nc3ccc4oc(-c5ccc(F)cc5)nc4c3)[nH]c2c1 too.
Marked response: > 36.8 µM

Exam item: Then what about the compound COc1ccc(-c2[nH]c3cc(OC)cc(OC)c3c(=O)c2I)cc1 ?
Marked response: > 86.2 µM

Exam item: Another compound to look at: COc1ccc(-c2cc(=O)c3c(OC)cc(OC)cc3n2S(=O)(=O)c2ccc(Br)cc2)cc1
Marked response: 63.8 µM

Exam item: Also check COc1cc(OC)c2c(=O)cc(C(=O)Nc3ccc(S(=O)(=O)c4ccccc4)cc3)[nH]c2c1
Marked response: > 70.7 µM

Exam item: Also COC(=O)c1cc(=O)c2cc(NC(=O)Nc3ccc(Cl)c(Cl)c3)ccc2[nH]1 ?
Marked response: 5.52 µM

Exam item: # repeat for COc1ccc(-c2cc(=O)c3c(OC)cc(OC)cc3n2Cc2ccccc2)cc1
Marked response: > 34.5 µM
